# experimental.target: UniProt:Q96A54
# Sequence (Q96A54 whole entry, species assumed): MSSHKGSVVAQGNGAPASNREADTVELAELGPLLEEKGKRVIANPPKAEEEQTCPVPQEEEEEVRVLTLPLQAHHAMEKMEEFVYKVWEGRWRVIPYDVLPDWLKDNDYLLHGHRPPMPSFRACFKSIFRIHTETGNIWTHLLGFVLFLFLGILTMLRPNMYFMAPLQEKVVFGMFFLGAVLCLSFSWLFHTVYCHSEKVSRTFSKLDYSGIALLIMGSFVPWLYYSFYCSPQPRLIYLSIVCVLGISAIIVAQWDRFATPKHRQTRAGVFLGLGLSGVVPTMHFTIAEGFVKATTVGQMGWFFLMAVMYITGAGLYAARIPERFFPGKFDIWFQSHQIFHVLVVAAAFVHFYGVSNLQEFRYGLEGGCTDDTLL
quantity: pKd
Just so you know, pKd here is -log10 of the concentration in molar units; reply with that number alone.

Kindly note the recorded pKd for O=C1c2c(cc(O)c([C@@H]3O[C@H](CO)[C@@H](O)[C@H](O)[C@H]3O)c2O)O[C@@H](c2ccc(O)c(O)c2)[C@@H]1O , which is 8.31

Numbers sourced from patent US20160193240A1.
